Ref: PubChem BioAssay (NCI)

system: IGROV1 ovarian; test: NCI-60 one-dose screen, 48 h; conditions: 10 µM unless noted
The panel holds about 83,000 compounds, 20% with a hit somewhere; the sample as a whole holds those more often. Active and inactive are the calls of the source. The calls were made as follows: active = growth percent below 10; inactive = the rest.
Outcomes: true (active), false (inactive)

Compound	Class label
Cc1nc2cc(Nc3nc(Nc4ccc(F)cc4)nc(N4CCCC4)n3)ccc2n1Cc1ccccc1	true
Clc1ccc2c(c1)C[C@H]1C[C@@H](c3cccs3)N2O1	false
O=C1c2cc(S(=O)(=O)O)ccc2C(=O)c2c1cccc2[N+](=O)[O-]	false
C[C@]1(CO)C[C@@H](O)C[C@]2(C)[C@@H]1CC[C@@]13C[C@@H]4[C@@H](C[C@H]12)[C@]4(C)C3	false
Cc1ccc2nc(NC(=O)CSC(=S)N3CCN(C)CC3)sc2c1	false
COc1cc(CNCCN2C(=O)c3ccc4c5c(ccc(c35)C2=O)C(=O)N(CCNCc2cc(OC)c(OC)c(OC)c2)C4=O)cc(OC)c1OC	true
COc1ccc(/C=N/OCC(O)CN2CCC(O)CC2)cc1OC1CCCC1 (stereo unspecified)	false
NC1=NC(c2ccccc2OS(=O)(=O)c2ccc(Br)cc2)n2c(nc3ccccc32)N1 (stereo unspecified)	false
Cc1nc2cc(Nc3nc(N4CCCCC4)nc(N4CCOCC4)n3)ccc2n1Cc1ccccc1	false
CC1(C)N=C(N)N=C(N)N1c1cccc(/C=C/C=C/c2cccc([N+](=O)[O-])c2)c1	false
Cc1ccc(C)c2c1sc1nc3nc4sc5ccccc5n4c(=N)c3c(=O)n12	false
CC(C)OC1=C(Cl)C(=O)c2ccccc2C1=O	false
COc1ccc(-c2nc3sc(C)nn3c2-c2nc3cc(C)c(C)cc3[nH]2)cc1	false
CCC12CCC3c4ccc(O)cc4CCC3C1CC(O)C2O (stereo unspecified)	false
CCOC(=O)c1c(-c2cc(OC)c(OC)c(OC)c2)csc1N	false
O=C1N/C(=C\c2ccccc2)c2ncccc21	false
O=c1[nH]c(-c2ccccn2)nc2sc3c(c12)CCCCCC3	false
COc1ccc(C2CC(c3cc(OC)c(OC)c(OC)c3)=NN2c2ccc(S(N)(=O)=O)cc2)cc1 (stereo unspecified)	false
CC1=C(C/C=C(\C)CCC[C@H](C)CCC[C@H](C)CCCC(C)C)C(=O)c2ccccc2C1=O	false
CC(C)(C)[Si](C)(C)OC1[C@@H](O[Si](C)(C)C(C)(C)C)[C@@H](CNC(=O)NC(=O)C(F)(F)F)O[C@H]1n1cnc2c(NC(=O)Nc3ccccc3)ncnc21 (stereo partly specified)	false
CC1SC(c2ccc(Cl)cc2)N(CCc2cccs2)C1=O (stereo unspecified)	true
